Tested on: Fibroblast
METHOD_NOTES: Incucyte cell viability with human fibroblast; also: unitless GR value; below 1 slowed growth and below 0 cell loss
Type: toxicity, cell-based
EXPERIMENTAL_CONDITIONS: 18 h, 10 µM, compound concentration 10 uM, replicate number 1

- COMPOUND: "CCC(=O)N[C@H]1CC[C@@H](C(=O)N(C)c2ccc(-c3nc4ccccc4o3)cc2)C1"
  Growth Rate: 0.66
- COMPOUND: "COc1ccc(CC(=O)NCc2ccccc2-c2ccccc2C(=O)NCc2ccc(F)cc2F)cc1"
  Growth Rate: 0.19
- COMPOUND: "NC1(c2ccc(-c3nc4c(O)ccnn4c3-c3ccccc3)cc2)CCC1"
  Growth Rate: 0.95
- COMPOUND: "Cc1nnc2n1-c1sc(CCC(=O)N3CCOCC3)cc1C(c1ccccc1Cl)=NC2"
  Growth Rate: 0.73
- COMPOUND: "COc1ccc(CCCN2CCC(COC(c3ccccc3)c3ccccc3)CC2)cc1.Cl"
  Growth Rate: -0.16
- COMPOUND: "CC(Sc1nc2c(cnn2-c2cccc(Cl)c2)c(=O)[nH]1)C(N)=O (stereo unspecified)"
  Growth Rate: 0.53
- COMPOUND: "COc1cnccc1Nc1nc(-c2nn(Cc3c(F)cc(OCCO)cc3F)c3ccccc23)ncc1OC"
  Growth Rate: -0.14
- COMPOUND: "CC(C)c1nc2c(c3c1[C@@H](c1ccc(C(F)(F)F)cc1)OC31CCOCC1)[C@@H](O)CC(C)(C)C2.Cl"
  Growth Rate: 0.15
- COMPOUND: "COC1(C#Cc2ccc(Cl)c(-c3ncc4c(n3)-c3sc(NC(C)=O)nc3CC4)c2)CCN(C)CC1"
  Growth Rate: -0.03
- COMPOUND: "O=C(Cc1ccccc1)Nc1nnc(N2CC[C@@H]3[C@H]2CN3c2cccnn2)s1"
  Growth Rate: 0.8
- COMPOUND: "COc1ccc(NC(=O)[C@@H]2C[C@H](C)CC[C@H]2C(C)C)cc1"
  Growth Rate: 0.98

* * *

Known Growth Rate of a selection of molecules
System: U2OS
METHOD_NOTES: Incucyte cell viability with U2OS; also: unitless GR value; below 1 slowed growth and below 0 cell loss
Format: toxicity, cell-based
EXPERIMENTAL_CONDITIONS: human, 0 h, 10 µM, compound concentration 10 uM, replicate number 2
MEASUREMENT_LABEL: Growth Rate

- MOLECULE: "CC(C)(C)c1cc(C(C)(C)C)c(NC(=O)c2c[nH]c3ccccc3c2=O)cc1O"
  MEASUREMENT_LABEL: "Growth Rate"
  QUANTITATIVE_RESULT: 0.5
- MOLECULE: "CN(C1CCc2c(c3ccccc3n2CC(=O)O)C1)S(=O)(=O)c1ccc(F)cc1 (stereo not drawn)"
  MEASUREMENT_LABEL: "Growth Rate"
  QUANTITATIVE_RESULT: 0.7
- MOLECULE: "CC[C@](C)(O)C#Cc1cc2c(ccn2-c2cc(OC)nc(N)n2)cn1"
  MEASUREMENT_LABEL: "Growth Rate"
  QUANTITATIVE_RESULT: -0.28
- MOLECULE: "CN1Cc2nccc(-c3cn(C)nc3-c3ccc(F)cc3)c2C1=O.Cl"
  MEASUREMENT_LABEL: "Growth Rate"
  QUANTITATIVE_RESULT: 0.96
- MOLECULE: "Cc1noc(C)c1-c1cnc2c(-c3ccc(C(=O)O)cc3)cn([C@@H](C)c3ccccn3)c2c1"
  MEASUREMENT_LABEL: "Growth Rate"
  QUANTITATIVE_RESULT: -0.91
- MOLECULE: "CCn1c(CNC(=O)c2ncc(C)nc2N)[n+](CC)c2ccc(C(=O)N(C)CCN(C)C)cc21.Cl.Cl.[Cl-]"
  MEASUREMENT_LABEL: "Growth Rate"
  QUANTITATIVE_RESULT: 0.31
- MOLECULE: "NCCCNCCCCNCCC(=O)NCCCCCNC(=O)[C@H](CC(N)=O)NC(=O)Cc1ccc(O)cc1O"
  MEASUREMENT_LABEL: "Growth Rate"
  QUANTITATIVE_RESULT: -0.97
- MOLECULE: "CC(C)(O)c1ccc2c(c1)ncn2-c1cccc(-c2ccccc2C#N)c1"
  MEASUREMENT_LABEL: "Growth Rate"
  QUANTITATIVE_RESULT: 0.83
- MOLECULE: "O=S(=O)(Nc1nncs1)c1cc(Cl)c(Oc2ccc(C(F)(F)F)cc2-c2ccnn2C2CNC2)cc1F"
  MEASUREMENT_LABEL: "Growth Rate"
  QUANTITATIVE_RESULT: -0.77
- MOLECULE: "CC1CCN(c2ccnc(NCc3cn(C)cn3)n2)CC1"
  MEASUREMENT_LABEL: "Growth Rate"
  QUANTITATIVE_RESULT: 0.69
- MOLECULE: "CC(C)C[C@H](NC(=O)c1cc2ccccc2s1)C(=O)N1CCN(C(=O)[C@H](CO)NS(=O)(=O)c2ccc(Cl)cc2Cl)CC1"
  MEASUREMENT_LABEL: "Growth Rate"
  QUANTITATIVE_RESULT: -1
- MOLECULE: "CCN1/C(=C/C(C)=O)Sc2ccc(OC(C)=O)cc21"
  MEASUREMENT_LABEL: "Growth Rate"
  QUANTITATIVE_RESULT: -0.86
- MOLECULE: "Oc1cc2c(cc1O)CN(C(=S)NCCc1ccc(Cl)cc1)CCC2 [CAPSAZEPINE]"
  MEASUREMENT_LABEL: "Growth Rate"
  QUANTITATIVE_RESULT: -0.38

* * *

Known Growth Rate of a selection of molecules
Tested on: U2OS
METHOD_NOTES: Incucyte cell viability with U2OS; also: unitless GR value; below 1 slowed growth and below 0 cell loss
Type: toxicity, cell-based
EXPERIMENTAL_CONDITIONS: human, 18 h, 10 µM, compound concentration 10 uM, replicate number 1

- MOLECULE: "CC(C)S(=O)(=O)c1ccccc1Nc1nc(N[C@@H]2CCCN(CCCCCCCNC(=O)COc3cccc4c3C(=O)N(C3CCC(=O)N(C)C3=O)C4=O)C2)ncc1Cl (stereo partly drawn)"
  TGT: "U2OS"
  Growth Rate: -0.06
- MOLECULE: "CC(CNS(=O)(=O)C(C)C)c1ccc(-c2ccc(C#N)cc2)cc1 (stereo not drawn)"
  TGT: "U2OS"
  Growth Rate: 0.83
- MOLECULE: "CC[C@H](Nc1c(C#N)c(-c2ccc(-c3cccc(C)c3F)cc2)nc2cnccc12)C(=O)O [BAY-0361]"
  TGT: "U2OS"
  Growth Rate: 0.74

* * *

Test system: U2OS
METHOD_NOTES: Incucyte cell viability with U2OS; also: unitless GR value; below 1 slowed growth and below 0 cell loss
Format: toxicity, cell-based
EXPERIMENTAL_CONDITIONS: human, 0 h, 10 µM, compound concentration 10 uM, replicate number 2
Known Growth Rate of a selection of compounds

- COMPOUND_STRING: "Cn1c2ccccc2c2c3c(c4c5ccccc5n(CCC#N)c4c21)CNC3=O"
  Growth Rate: -0.94
- COMPOUND_STRING: "O=C(Nc1c[nH]nc1-c1nc2cc(CN3CCOCC3)ccc2[nH]1)NC1CC1"
  Growth Rate: 0.73
- COMPOUND_STRING: "CC(C)CC(=O)Nc1cncc(-c2ccc3[nH]nc(-c4nc5c(-c6cccc(F)c6)cncc5[nH]4)c3c2)c1"
  Growth Rate: -0.42
- COMPOUND_STRING: "Cc1nc2c([nH]1)c(=O)n(C)c(=O)n2Cc1ccco1"
  Growth Rate: -0.96
- COMPOUND_STRING: "CCN(c1ccccc1)c1cc(NC)[n+](C)c(C)n1.[Cl-]"
  Growth Rate: -0.9
- COMPOUND_STRING: "Cc1cc(-c2cnc(N)c3c(-c4ccc5scnc5c4)csc23)n(C)n1"
  Growth Rate: -0.85
- COMPOUND_STRING: "NS(=O)(=O)c1cncc(-c2nc(NCc3ccccn3)c3c(-c4ccccc4)cccc3n2)c1"
  Growth Rate: -0.7
- COMPOUND_STRING: "Oc1ccc(-c2nc(-c3ccncc3)c(-c3ccc(F)cc3)[nH]2)cc1"
  Growth Rate: -0.95
- COMPOUND_STRING: "CNC(=O)COc1cc2cc(Nc3nc(N4C[C@H](C)C[C@H](C)C4)ncc3Cl)ccc2n(C)c1=O"
  Growth Rate: 0.58
- COMPOUND_STRING: "Cc1cc([N+](=O)[O-])c(NS(=O)(=O)c2cccc(C(=O)O)c2)cc1-c1cccnc1"
  Growth Rate: 0.06
- COMPOUND_STRING: "O=C(Cc1ccccc1)Nc1nnc(N2C[C@H]3C[C@@H]2CN3c2cccnn2)s1"
  Growth Rate: 0.56
- COMPOUND_STRING: "CC1=C(C(=O)OCCO)[C@@H](c2ccc(C#N)cc2)NC(=O)N1c1cccc(C(F)(F)F)c1"
  Growth Rate: 0.55
- COMPOUND_STRING: "CCN(C(=O)c1cc(F)ccc1Oc1cncnc1N1CC2(CCN(C[C@H]3CC[C@H](NS(=O)(=O)CC)CC3)CC2)C1)C(C)C"
  Growth Rate: 0.45
- COMPOUND_STRING: "CCCN1CCC(C#N)(NC(=O)[C@H](CC(C)(C)C)NC(=O)N2CCOCC2)CC1"
  Growth Rate: 0.82
- COMPOUND_STRING: "CC(C)n1cc(-c2ccc(N3CCN(C)CC3)c(NC(=O)c3ccc(-c4ccncc4)o3)c2)cn1"
  Growth Rate: -0.8
- COMPOUND_STRING: "COc1cc(N2CCC(N3CCN(C)CC3)CC2)ccc1Nc1ncc(Cl)c(Nc2ccccc2S(=O)(=O)C(C)C)n1"
  Growth Rate: -0.18
- COMPOUND_STRING: "Cn1cc(-c2ccc3occ(-c4cccc(-c5ccncc5)c4)c3n2)cn1"
  Growth Rate: 0.89
